Parameter: pKd. Scope: all listed entries.
Biological target: T1, PDZD7_3, Q9H5P4
T1 sequence (Q9H5P4 857-944, limits assumed, looked up): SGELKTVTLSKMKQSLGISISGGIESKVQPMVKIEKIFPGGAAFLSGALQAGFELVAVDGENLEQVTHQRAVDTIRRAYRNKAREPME
Assay: holdup assay
Set-up: key: below the threshold = too weak to quantify, mostly under pKd 3.1 to 4
Settings: plain residues with an end cap or a label only (N-terminal biotin on a linker: ttds)
quantity measured: pKd

>>> df
                          binder  observed
0  SRPQRTQTQV [HPV67-E6, A4U7F2]      3.65
1  SSRTRRETQL [HPV16-E6, P03126]      4.68
2     STLTIFETAL [ABCC4, O15439]      5.27
3    IYVPEAQTRL [DLGAP4, Q9Y2H0]      4.31
4    TVASEKESVM [SLC1A5, Q15758]      3.71

Where these numbers come from: paper PMC9482650
